- TGT: human recombinant BChE (rBChE) in solution (Homo sapiens, UniProt P06276)
- Sequence (P06276 29-602): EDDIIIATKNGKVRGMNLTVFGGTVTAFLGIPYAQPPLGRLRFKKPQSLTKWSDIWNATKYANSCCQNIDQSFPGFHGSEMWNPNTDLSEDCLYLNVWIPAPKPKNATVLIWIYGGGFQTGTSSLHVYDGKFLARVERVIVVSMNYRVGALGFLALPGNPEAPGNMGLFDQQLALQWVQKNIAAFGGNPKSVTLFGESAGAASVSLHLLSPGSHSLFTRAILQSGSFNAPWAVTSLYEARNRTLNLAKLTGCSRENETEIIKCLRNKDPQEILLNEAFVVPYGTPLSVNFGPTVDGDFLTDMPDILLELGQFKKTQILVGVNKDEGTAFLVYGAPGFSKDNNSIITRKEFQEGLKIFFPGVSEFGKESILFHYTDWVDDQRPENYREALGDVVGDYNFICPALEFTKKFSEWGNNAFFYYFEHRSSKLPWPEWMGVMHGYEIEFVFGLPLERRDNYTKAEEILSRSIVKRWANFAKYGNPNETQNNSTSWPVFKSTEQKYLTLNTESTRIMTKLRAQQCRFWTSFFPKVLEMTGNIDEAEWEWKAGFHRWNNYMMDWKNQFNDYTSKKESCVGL
- PROTOCOL_SUMMARY: in solution stopped time assay for carbamoylation constants
- Format: biochemical
- MEASUREMENT_CONTEXT: enzyme in solution, classical Ellman's assay
Measured carbamoylation constant k2, rBChE in solution by item
PROPERTY_MEASURED: carbamoylation constant k2, rBChE in solution (min⁻¹)

molecule="CNC(=O)Oc1ccc2c(c1)[C@]1(C)CCN(C)[C@@H]1N2C [(-)-Physostigmine, (-)-physostigmine, reference compound]" tgt="human recombinant BChE (rBChE) in solution (Homo sapiens, UniProt P06276)" quantity_unit=min⁻¹ value_observed=0.479
molecule="CN1CC[C@@]2(C)c3cc(OC(=O)Nc4ccccc4)ccc3N(C)[C@@H]12 [(-)-Phenserine, 3aS-(-)-phenylcarbamoyleseroline]" tgt="human recombinant BChE (rBChE) in solution (Homo sapiens, UniProt P06276)" quantity_unit=min⁻¹ value_observed=3.094
molecule="CC(C)Cc1ccc(NC(=O)Oc2ccc3c(c2)[C@]2(C)CCN[C@@H]2N3)cc1 [(-)-Isobutylbisnorcymserine]" tgt="human recombinant BChE (rBChE) in solution (Homo sapiens, UniProt P06276)" quantity_unit=min⁻¹ value_observed=0.634
molecule="CC(C)c1ccc(NC(=O)Oc2ccc3c(c2)[C@]2(C)CCN[C@@H]2N3)cc1 [(-)-Bisnorcymserine]" tgt="human recombinant BChE (rBChE) in solution (Homo sapiens, UniProt P06276)" quantity_unit=min⁻¹ value_observed=0.573
